# tgt: Ephrin type-B receptor 3 (Homo sapiens) (UniProt P54753)
# Sequence (P54753 whole entry): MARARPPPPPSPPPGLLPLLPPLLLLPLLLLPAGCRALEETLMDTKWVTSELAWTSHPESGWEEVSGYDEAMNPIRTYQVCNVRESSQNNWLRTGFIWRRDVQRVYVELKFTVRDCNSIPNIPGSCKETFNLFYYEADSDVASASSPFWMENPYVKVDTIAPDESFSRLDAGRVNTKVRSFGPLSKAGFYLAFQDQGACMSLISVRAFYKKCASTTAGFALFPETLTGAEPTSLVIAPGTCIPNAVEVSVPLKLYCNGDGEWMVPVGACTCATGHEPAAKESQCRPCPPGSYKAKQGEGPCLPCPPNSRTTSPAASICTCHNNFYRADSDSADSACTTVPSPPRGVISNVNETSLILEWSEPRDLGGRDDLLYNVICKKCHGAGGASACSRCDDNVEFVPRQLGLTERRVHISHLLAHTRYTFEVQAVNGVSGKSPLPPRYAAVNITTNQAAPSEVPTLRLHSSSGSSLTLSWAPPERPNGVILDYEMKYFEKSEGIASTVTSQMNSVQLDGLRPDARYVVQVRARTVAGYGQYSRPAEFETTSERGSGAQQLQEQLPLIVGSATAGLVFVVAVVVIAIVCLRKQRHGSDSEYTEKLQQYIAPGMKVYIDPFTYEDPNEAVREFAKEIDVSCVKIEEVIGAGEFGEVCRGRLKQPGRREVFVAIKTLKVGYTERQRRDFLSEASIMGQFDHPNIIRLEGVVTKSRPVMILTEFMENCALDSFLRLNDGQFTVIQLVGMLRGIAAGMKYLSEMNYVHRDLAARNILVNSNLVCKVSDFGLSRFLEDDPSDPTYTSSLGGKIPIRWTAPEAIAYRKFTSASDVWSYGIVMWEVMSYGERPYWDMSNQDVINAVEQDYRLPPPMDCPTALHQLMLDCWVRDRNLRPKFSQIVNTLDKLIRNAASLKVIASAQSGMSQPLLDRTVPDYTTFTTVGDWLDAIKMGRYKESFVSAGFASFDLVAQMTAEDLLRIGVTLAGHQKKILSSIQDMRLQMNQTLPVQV
# condition_details: at 0.1 µM;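 also: reported value is the mean percent inhibition of EPHB3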
value_kind: inhibition (%)

INSERT INTO assay_data (smiles, value_kind, reading) VALUES
  ('O=C(Nc1n[nH]c2cc(-c3ccc(F)cc3)ccc12)C1CC1', 'inhibition', 5.69),
  ('COc1ccc(-c2oc3ncnc(N)c3c2-c2ccc(NC(=O)Nc3cc(C(F)(F)F)ccc3F)cc2)cc1', 'inhibition', 92.7),
  ('Fc1cccc(COc2ccc(Nc3ncnc4sc(-c5ccco5)cc34)cc2Cl)c1', 'inhibition', 5.55),
  ('CCn1c(-c2nonc2N)nc2cnc(Oc3cccc(NC(=O)c4ccc(N(C)C)cc4)c3)cc21', 'inhibition', 4.18),
  ('CCn1cc(-c2ccnc3[nH]ccc23)c(-c2cccc(NC(=O)Nc3ccc(OCc4ccccc4)cc3)c2)n1', 'inhibition', 0.02),
  ('Cc1cccc2c1NC(=O)/C2=N\Nc1ccc(S(N)(=O)=O)cc1', 'inhibition', 5.12),
  ('CCCN1CCC(c2ccc(Nc3nc(Nc4cc(F)ccc4C(N)=O)c4cc[nH]c4n3)c(OC)c2)CC1', 'inhibition', 7.06),
  ('CC(C)(CO)CNC(=O)c1ccc2c(c1)/C(=N/Nc1ccc(S(N)(=O)=O)cc1)C(=O)N2', 'inhibition', -0.32),
  ('Nc1nc(-c2cccc(Cl)c2)c(-c2ccc3ncccc3n2)s1', 'inhibition', 5.95);

Values from ChEMBL document CHEMBL1961873
